Values from ChEMBL document CHEMBL4834402

Can you tell me IC50 for the items I'm about to list?
molecular target: NEDD8 activating enzyme (Homo sapiens); experiment: Inhibition of recombinant NAE (unknown origin) in presence of ATP at Km concentration by HTRF assay; format: protein-complex assay
Sequence (Q8TBC4 whole entry): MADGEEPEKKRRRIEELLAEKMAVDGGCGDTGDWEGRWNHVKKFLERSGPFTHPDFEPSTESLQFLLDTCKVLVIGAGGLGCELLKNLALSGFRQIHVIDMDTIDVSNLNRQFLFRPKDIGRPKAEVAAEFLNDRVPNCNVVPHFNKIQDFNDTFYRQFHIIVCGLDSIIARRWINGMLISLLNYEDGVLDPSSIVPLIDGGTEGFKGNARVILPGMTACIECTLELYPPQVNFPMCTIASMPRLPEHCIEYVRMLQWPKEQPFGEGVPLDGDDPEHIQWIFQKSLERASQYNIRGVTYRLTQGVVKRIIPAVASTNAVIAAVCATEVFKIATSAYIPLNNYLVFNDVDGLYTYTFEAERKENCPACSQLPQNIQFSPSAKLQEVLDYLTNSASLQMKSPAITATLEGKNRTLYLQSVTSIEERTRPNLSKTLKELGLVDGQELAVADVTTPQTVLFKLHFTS
Sequence (Q13564 whole entry, further chain): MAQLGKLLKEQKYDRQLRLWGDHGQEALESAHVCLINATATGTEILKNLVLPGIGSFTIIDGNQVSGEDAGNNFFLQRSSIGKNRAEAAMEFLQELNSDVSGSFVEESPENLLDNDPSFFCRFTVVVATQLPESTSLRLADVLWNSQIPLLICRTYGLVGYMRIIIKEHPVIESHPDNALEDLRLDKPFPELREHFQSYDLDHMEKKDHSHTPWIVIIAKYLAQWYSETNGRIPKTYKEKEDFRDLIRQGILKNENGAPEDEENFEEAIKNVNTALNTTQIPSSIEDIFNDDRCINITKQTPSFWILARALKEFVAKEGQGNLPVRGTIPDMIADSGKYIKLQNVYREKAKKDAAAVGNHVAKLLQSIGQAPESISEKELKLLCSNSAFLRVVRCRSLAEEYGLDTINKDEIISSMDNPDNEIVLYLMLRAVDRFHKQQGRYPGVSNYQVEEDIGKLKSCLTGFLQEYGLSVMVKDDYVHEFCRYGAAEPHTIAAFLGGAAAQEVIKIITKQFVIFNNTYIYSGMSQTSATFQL
// note: answer is a bare numeric in µM

Reported IC50 for NS(=O)(=O)OC[C@H]1C[C@@H](Nc2ncncc2C(=O)c2cc(Cc3cccc(Cl)c3)cs2)C[C@@H]1O was 0.064

Reported IC50 for Cc1sc(C(=O)c2cncnc2N[C@@H]2C[C@H](COS(N)(=O)=O)[C@@H](O)C2)cc1[C@@H]1NCCc2ccc(Cl)cc21 was 0.96

Reported IC50 for NS(=O)(=O)OC[C@H]1C[C@@H](Nc2ncncc2C(=O)c2cc(C(O)c3cccc(Cl)n3)c(Cl)s2)C[C@@H]1O (some centres not stated) was 0.34

Reported IC50 for NS(=O)(=O)OC[C@H]1C[C@@H](Nc2ncncc2C(=O)c2ccn(Cc3cccc(F)c3)n2)C[C@@H]1O was 0.357

Reported IC50 for CC(O)(c1cccc(Cl)c1)c1csc(C(=O)c2cncnc2N[C@@H]2C[C@H](COS(N)(=O)=O)[C@@H](O)C2)c1 (some centres not stated) was 0.343

###

Can you tell me pIC50 for the items I'm about to list?
target: SUMO-activating enzyme (Homo sapiens, UniProt Q9UBT2); assay: Inhibition of recombinant SAE (unknown origin) assessed as reduction in transfer of SUMO1 to UBC9 using SUMO1 as a substrate in presence of ATP at Km concentration by HTRF assay; assay type: protein-complex assay
Sequence (Q9UBE0 whole entry): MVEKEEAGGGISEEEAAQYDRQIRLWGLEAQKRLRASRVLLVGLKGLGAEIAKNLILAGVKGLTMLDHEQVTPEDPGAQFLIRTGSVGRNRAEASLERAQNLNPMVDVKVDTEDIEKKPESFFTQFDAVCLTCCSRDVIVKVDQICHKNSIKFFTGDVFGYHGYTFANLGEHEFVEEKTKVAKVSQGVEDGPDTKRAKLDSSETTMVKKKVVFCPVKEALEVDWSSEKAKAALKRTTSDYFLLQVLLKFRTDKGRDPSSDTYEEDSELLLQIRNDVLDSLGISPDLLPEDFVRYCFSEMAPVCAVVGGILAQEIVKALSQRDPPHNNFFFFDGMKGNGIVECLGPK
Sequence (Q9UBT2 whole entry): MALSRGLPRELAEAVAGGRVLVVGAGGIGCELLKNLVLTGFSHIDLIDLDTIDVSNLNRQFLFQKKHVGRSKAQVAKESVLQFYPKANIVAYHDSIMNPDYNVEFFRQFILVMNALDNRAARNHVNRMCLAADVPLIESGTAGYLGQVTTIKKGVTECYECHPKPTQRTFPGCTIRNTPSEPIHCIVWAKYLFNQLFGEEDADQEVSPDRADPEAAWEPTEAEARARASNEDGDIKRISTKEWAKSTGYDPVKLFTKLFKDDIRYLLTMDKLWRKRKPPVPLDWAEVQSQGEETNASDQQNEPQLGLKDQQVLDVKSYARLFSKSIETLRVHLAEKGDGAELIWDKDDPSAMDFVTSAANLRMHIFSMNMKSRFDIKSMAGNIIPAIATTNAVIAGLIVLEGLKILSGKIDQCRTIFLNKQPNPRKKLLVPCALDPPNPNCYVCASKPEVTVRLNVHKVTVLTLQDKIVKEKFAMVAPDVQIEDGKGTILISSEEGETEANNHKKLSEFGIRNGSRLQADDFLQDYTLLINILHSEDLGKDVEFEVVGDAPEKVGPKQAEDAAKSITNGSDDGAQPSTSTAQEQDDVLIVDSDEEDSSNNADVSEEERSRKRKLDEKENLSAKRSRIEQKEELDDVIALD
Please treat pIC50 as minus the base-10 logarithm of the molar concentration.

Reported pIC50 for NS(=O)(=O)OC[C@H]1C[C@@H](Nc2ncncc2C(=O)c2ccn(Cc3ccccc3Cl)n2)C[C@@H]1O was 8.49

Reported pIC50 for Cc1sc(C(=O)c2cncnc2N[C@@H]2C[C@H](COS(N)(=O)=O)[C@@H](O)C2)cc1[C@H]1NCCc2ccc(Cl)cc21 was 7.52

Reported pIC50 for NC(c1cccc(Cl)c1)c1cc(C(=O)c2cncnc2N[C@@H]2C[C@H](COS(N)(=O)=O)[C@@H](O)C2)sc1Cl (some centres undefined) was 9.40

Reported pIC50 for NS(=O)(=O)OC[C@H]1C[C@@H](Nc2ncncc2C(=O)c2ccn(Cc3ccccc3)n2)C[C@@H]1O was 8.70

###

assay: AUC in rat blood at 10 mg/kg, po; type: ADME, organism-based; set-up: dose 10 mg/kg
Can you tell me AUC for the items I'm about to list?
// note: answer is a bare numeric in µM·h

Reported AUC for NS(=O)(=O)OC[C@H]1C[C@@H](Nc2ncncc2C(=O)c2ccn(Cc3cccc(Br)c3)n2)C[C@@H]1O was 10.8

Reported AUC for Cc1sc(C(=O)c2cncnc2N[C@@H]2C[C@H](COS(N)(=O)=O)[C@@H](O)C2)cc1C1OCCc2ccc(Cl)cc21 (stereo in doubt) was 24.1

Reported AUC for Cc1sc(C(=O)c2cncnc2N[C@@H]2C[C@H](COS(N)(=O)=O)[C@@H](O)C2)cc1[C@@H]1NCCc2ccc(Cl)cc21 was 32

###

experiment: Lipophilicity, logD of compound at pH 7.4; format: physicochemical; conditions: buffer
ASSAY_METRIC: logD

Reported logD for Cc1sc(C(=O)c2cncnc2N[C@@H]2C[C@H](COS(N)(=O)=O)[C@@H](O)C2)cc1C1OCCc2ccc(Cl)cc21 (stereo in doubt) was 1.9

Reported logD for Cc1sc(C(=O)c2cncnc2N[C@@H]2C[C@H](COS(N)(=O)=O)[C@@H](O)C2)cc1[C@@H]1NCCc2ccc(Cl)cc21 was 2.1

Reported logD for NS(=O)(=O)OC[C@H]1C[C@@H](Nc2ncncc2C(=O)c2ccn(Cc3cccc(Br)c3)n2)C[C@@H]1O was 2.6
